# Assay details: 3-month dose-ranging study: plasma pharmacokinetics on Day 91
# Type: in vivo
# Conditions used: human, oral, once daily dose of 50 mg, read-out: expected plasma Cmax,ss

Structure notation: C[C@@]1(c2nc(NC(=O)c3ncc(C(F)(F)F)cc3Cl)ccc2F)CO[C@@](C)(C(F)(F)F)C(N)=N1
Cmax: 200 to 500 ng/mL

* * *

# Assay details: 13-week oral safety study in aged APP23 mice: plasma and brain concentrations of Compound 1 (toxicokinetics)
# Format: in vivo
# Conditions used: female, APP23, mouse, brain (cerebellum, level 7), 0.3 g/kg food, end of the study

Structure notation: C[C@@]1(c2nc(NC(=O)c3ncc(C(F)(F)F)cc3Cl)ccc2F)CO[C@@](C)(C(F)(F)F)C(N)=N1
Value units: ng/g
concentration at 13 weeks: 4030
